Cited source for all entries: patent US20250084097A1

Molecular target: Ba/F3-FL-EGFR (del19-E746-A750/T790M) (Homo sapiens, UniProt P00533, DEL746-750/T790M, cells depend on it)
Test: Cell proliferation inhibition, CellTiter-Glo
Format: cell-based
Settings: 72 hours, read-out: Cell half-maximal inhibition concentration IC50 Ba/F3-FL-EGFR (del19-E746-A750/T790M)
ATTRIBUTE_MEASURED: GI50 (nM)
Numeric answer only, unit nM assumed.

Could you tell me which GI50 is on file for Cc1cc2cc(n1)-c1cnn(C)c1OCCC[C@@H](C)CN1/C(=N/C2=O)Nc2ccc(N=S3(=O)CCCC3)cc21 [WX-010 (trifluoroacetate)] ?
0.4

Requested read-out: GI50. Entry: Cc1cc2cc(n1)-c1cnn(C)c1OC[C@H]1CC[C@H](C1)CN1/C(=N/C2=O)Nc2ccc(N=S(C)(C)=O)cc21 (single isomer, unassigned) [WX-027A]
1.9

Consider the molecule Cc1cc2cc(n1)-c1cnn(C)c1OCCC[C@@H](C)CN1/C(=N/C2=O)Nc2ccc(N=S(C)(C)=O)cc21 and give its measured GI50.
0.8

Which value of GI50 has been reported for Cc1cc2cc(n1)-c1cnn(C)c1OCCC[C@@H](C)CN1/C(=N/C2=O)Nc2ccc(N=S(C)(C)=O)c(Cl)c21 in the records?
2.9

* * *

Target: Ba/F3-FL-EGFR (L858R/T790M/C797S) (Homo sapiens, UniProt P00533, T790M/C797S/L858R, cells depend on it)
Sequence (P00533 whole entry T790M/C797S/L858R): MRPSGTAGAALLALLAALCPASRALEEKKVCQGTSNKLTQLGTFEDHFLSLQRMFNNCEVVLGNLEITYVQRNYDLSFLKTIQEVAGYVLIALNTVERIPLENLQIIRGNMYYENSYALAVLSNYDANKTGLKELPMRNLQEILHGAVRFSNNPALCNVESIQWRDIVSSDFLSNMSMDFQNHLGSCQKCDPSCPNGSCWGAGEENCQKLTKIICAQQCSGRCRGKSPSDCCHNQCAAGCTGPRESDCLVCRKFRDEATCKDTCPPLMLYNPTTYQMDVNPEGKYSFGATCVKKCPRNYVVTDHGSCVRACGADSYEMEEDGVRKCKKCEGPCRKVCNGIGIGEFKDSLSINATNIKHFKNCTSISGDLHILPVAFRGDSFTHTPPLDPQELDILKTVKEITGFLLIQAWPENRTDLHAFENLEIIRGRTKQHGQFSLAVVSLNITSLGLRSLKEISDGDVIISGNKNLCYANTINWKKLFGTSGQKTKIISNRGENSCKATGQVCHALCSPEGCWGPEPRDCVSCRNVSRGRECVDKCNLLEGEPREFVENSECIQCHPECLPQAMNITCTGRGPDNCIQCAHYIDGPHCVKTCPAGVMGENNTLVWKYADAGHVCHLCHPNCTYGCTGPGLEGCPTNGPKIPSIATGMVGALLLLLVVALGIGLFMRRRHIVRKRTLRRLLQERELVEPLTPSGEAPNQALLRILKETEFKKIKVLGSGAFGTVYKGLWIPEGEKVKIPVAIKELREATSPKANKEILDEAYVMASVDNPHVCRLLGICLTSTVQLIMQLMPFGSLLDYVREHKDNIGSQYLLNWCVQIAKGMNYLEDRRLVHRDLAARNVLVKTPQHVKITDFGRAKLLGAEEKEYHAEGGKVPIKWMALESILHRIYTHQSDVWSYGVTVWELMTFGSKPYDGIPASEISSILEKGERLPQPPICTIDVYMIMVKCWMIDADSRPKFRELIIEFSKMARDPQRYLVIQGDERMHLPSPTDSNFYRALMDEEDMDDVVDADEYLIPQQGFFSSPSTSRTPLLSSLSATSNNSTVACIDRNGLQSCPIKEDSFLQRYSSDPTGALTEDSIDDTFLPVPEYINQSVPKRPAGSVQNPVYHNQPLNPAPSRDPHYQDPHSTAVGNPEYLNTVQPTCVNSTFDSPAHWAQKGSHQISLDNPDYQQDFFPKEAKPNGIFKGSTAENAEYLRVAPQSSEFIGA
Test: Cell proliferation inhibition, CellTiter-Glo
Type: cell-based
Settings: 72 hours, read-out: Cell half-maximal inhibition concentration IC50 Ba/F3-FL-EGFR (L858R/T790M/C797S)
The label is Fulfilled for GI50 below 10 nM and Not fulfilled for GI50 equal to or exceeding 10 nM.

Hello, is GI50 of the following compound strictly smaller than 10 nM? Cc1cc2cc(n1)-c1cnn(C)c1OCCC[C@@H](C)CN1/C(=N/C2=O)Nc2ccc(N=S3(=O)CCC4(CCOCC4)CC3)cc21
Fulfilled

Dear reviewer, please state whether Cc1cc2cc(n1)-c1cnn(C)c1OCCC[C@@H](C)CN1/C(=N/C2=O)Nc2ccc(N=S3(=O)CCN(C)CC3)cc21 has GI50 strictly beneath 10 nM.
Not fulfilled

Record Cc1cc2cc(n1)-c1cnn(C)c1OCCC[C@@H](C)CN1/C(=N/C2=O)Nc2ccc(N=S3(=O)CCN(C4COC4)CC3)cc21 : is its GI50 strictly below 10 nM?
Not fulfilled

GI50 strictly < 10 nM for this compound? Cc1cc2cc(n1)-c1cnn(C)c1OCCC[C@@H](C)CN1/C(=N/C2=O)Nc2ccc(N=S3(=O)CCCCC3)cc21
Fulfilled

Does this compound meet the criterion GI50 < 10 nM? Cc1cc2cc(n1)-c1cnn(C)c1OCCC[C@@H](C)CN1/C(=N/C2=O)Nc2ccc(N=S3(=O)CCC4(CC3)CN(C)C4)cc21
Fulfilled

Does the reported GI50 of the following compound sit strictly below 10 nM? Cc1cc2cc(n1)-c1cnn(C)c1OCCC[C@@H](C)CN1/C(=N/C2=O)Nc2ccc(N=S(C)(C)=O)cc21 [WX-006 (trifluoroacetate)]
Fulfilled

* * *

Kindly supply the reported IC50 values for the records listed here.
Please state the value followed by its unit.

Param readout = IC50; param system = CYP2C9 (Homo sapiens, UniProt P11712); param query = Cc1cc2cc(n1)-c1cnn(C)c1OC[C@H]1CC[C@H](C1)CN1/C(=N/C2=O)Nc2ccc(N=S(C)(C)=O)cc21 (single isomer, unassigned) [WX-027A] ; response: value
Sequence (P11712 whole entry): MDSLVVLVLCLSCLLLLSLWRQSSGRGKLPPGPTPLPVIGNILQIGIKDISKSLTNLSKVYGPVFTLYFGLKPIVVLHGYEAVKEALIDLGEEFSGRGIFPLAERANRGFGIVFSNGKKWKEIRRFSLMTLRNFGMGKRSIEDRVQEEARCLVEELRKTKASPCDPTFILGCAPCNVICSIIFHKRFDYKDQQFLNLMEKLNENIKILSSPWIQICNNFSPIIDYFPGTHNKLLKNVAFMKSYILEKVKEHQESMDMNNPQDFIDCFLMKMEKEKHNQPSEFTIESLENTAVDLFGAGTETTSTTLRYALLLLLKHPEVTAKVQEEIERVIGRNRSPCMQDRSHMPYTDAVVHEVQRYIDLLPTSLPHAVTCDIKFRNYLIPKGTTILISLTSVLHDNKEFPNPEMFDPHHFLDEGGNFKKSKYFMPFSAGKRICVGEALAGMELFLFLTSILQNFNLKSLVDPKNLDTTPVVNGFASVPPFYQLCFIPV
14 µM

Query IC50 on CYP2C9 (Homo sapiens, UniProt P11712) for Cc1cc2cc(n1)-c1cnn(C)c1OCCC[C@@H](C)CN1/C(=N/C2=O)Nc2ccc(N=S(C)(C)=O)c(Cl)c21 [WX-019]
31 µM

* * *

Target: Ba/F3-FL-EGFR (del19-S752-I759) (Homo sapiens, UniProt P00533, DEL752-759, cells depend on it)
Sequence (P00533 with tags, fused parts or gaps DEL752-759): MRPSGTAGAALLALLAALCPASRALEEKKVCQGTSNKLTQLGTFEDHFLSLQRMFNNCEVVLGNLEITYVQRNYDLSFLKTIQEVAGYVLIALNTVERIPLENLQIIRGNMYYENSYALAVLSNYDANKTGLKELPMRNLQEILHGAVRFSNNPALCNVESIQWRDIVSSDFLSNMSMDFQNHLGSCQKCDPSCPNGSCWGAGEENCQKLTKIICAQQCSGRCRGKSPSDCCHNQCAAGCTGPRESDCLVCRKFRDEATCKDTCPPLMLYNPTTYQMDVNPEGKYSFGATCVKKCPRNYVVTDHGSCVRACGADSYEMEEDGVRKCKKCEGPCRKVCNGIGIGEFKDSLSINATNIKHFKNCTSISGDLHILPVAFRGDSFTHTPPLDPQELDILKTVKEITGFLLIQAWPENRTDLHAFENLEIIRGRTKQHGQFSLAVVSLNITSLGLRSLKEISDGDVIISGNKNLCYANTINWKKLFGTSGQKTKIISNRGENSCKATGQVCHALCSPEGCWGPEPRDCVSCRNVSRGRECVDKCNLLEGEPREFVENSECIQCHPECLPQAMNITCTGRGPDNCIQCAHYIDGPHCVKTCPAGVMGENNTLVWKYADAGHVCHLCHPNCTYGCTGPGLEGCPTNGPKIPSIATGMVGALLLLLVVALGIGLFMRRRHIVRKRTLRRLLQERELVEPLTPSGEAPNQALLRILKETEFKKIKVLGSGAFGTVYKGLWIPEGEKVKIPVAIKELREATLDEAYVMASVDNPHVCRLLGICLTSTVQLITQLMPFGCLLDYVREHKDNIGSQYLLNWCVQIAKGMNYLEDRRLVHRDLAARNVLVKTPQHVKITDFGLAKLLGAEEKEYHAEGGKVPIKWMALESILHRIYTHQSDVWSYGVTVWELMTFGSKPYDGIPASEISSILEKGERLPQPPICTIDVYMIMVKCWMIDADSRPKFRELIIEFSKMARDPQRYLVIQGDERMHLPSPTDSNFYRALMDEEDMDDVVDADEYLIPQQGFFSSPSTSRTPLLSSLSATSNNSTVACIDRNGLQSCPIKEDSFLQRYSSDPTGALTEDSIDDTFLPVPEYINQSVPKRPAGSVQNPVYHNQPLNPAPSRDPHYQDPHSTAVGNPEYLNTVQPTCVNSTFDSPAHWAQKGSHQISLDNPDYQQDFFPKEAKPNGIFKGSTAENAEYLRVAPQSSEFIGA
Assay: Cell proliferation inhibition, CellTiter-Glo
Type: cell-based
Conditions: 72 hours, read-out: Cell half-maximal inhibition concentration IC50 Ba/F3-FL-EGFR (del19-S752-I759)
Give measured GI50 for each item. Keep answers brief.
Write it as a number; the unit nM goes unstated.

Report GI50 for Cc1cc2cc(n1)-c1cnn(C)c1OCCC[C@@H](C)CN1/C(=N/C2=O)Nc2ccc(N=S3(=O)CCCC3)cc21 [WX-010 (trifluoroacetate)] please.
11.2

Consider the compound Cc1cc2cc(n1)-c1cnn(C)c1OCCC[C@@H](C)CN1/C(=N/C2=O)Nc2ccc(N=S(C)(C)=O)c(Cl)c21 [WX-019] and give its measured GI50.
15.6

Which GI50 is listed for Cc1cc2cc(n1)-c1cnn(C)c1OCCC[C@@H](C)CN1/C(=N/C2=O)Nc2ccc(N=S(C)(C)=O)cc21 [WX-006] ?
15.4

GET /values?readout=GI50&item= Cc1cc2cc(n1)-c1cnn(C)c1OCCC[C@@H](C)CN1/C(=N/C2=O)Nc2ccc(N=S3(=O)CCNCC3)cc21 [WX-014]
38.1

Give the measured GI50 of Cc1cc2cc(n1)-c1cnn(C)c1OC[C@H]1CC[C@H](C1)CN1/C(=N/C2=O)Nc2ccc(N=S(C)(C)=O)cc21 (single isomer, unassigned) [WX-027A] .
12.9

* * *

Assign IC50 to each entry below.
Target: EGFR (L858R/T790M/C797S) (Homo sapiens, UniProt P00533, C797S/L858R/T790M)
Construct: Reaction Biology Corp. (assay performed there)
Sequence (P00533 25-1210 T790M/C797S/L858R): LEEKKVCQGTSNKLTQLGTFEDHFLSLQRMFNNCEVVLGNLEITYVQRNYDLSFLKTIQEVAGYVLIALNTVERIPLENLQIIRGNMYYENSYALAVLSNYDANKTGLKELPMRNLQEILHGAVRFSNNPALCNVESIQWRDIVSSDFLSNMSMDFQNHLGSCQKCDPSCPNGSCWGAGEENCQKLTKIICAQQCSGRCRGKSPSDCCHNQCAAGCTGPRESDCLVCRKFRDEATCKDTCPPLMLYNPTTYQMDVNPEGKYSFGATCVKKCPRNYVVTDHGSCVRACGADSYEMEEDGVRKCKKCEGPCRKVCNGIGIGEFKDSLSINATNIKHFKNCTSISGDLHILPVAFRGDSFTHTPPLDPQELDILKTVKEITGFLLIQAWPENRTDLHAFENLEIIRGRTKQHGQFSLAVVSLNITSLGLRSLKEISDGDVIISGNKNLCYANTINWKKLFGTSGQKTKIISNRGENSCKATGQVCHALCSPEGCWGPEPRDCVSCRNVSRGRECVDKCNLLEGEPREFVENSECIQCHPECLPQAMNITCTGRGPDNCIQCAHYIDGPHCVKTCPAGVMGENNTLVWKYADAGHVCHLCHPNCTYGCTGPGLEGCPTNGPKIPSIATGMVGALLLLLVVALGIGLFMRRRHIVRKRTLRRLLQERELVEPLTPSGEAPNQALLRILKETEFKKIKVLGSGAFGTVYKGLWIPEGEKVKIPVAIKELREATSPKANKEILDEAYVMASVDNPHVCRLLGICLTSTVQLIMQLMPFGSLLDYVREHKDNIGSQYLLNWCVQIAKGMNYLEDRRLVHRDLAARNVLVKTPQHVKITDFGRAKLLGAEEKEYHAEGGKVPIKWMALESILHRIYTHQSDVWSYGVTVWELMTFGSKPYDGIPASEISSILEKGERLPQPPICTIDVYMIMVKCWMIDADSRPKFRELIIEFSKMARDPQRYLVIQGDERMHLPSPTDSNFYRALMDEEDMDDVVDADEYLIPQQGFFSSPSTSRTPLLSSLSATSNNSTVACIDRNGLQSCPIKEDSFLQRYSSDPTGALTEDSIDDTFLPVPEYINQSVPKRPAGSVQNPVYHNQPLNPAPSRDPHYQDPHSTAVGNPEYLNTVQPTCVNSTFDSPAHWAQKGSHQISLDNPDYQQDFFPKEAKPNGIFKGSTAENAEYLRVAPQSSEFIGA
Assay: Kinase inhibitory activity, 33P-ATP filtration-binding (Reaction Biology Corp.)
Format: biochemical
Settings: ATP 10 μM; read-out: Kinase half-maximal inhibition concentration IC50 EGFR(L858R/T790M/C797S)

Find the measured IC50: item Cc1cc2cc(n1)-c1cnn(C)c1OCCC[C@@H](C)CN1/C(=N/C2=O)Nc2ccc(P(C)(C)=O)cc21 [WX-001 (trifluoroacetate)] , target or system EGFR (L858R/T790M/C797S) (Homo sapiens, UniProt P00533, C797S/L858R/T790M).
0.159 nM

# value lookup — system EGFR (L858R/T790M/C797S) (Homo sapiens, UniProt P00533, C797S/L858R/T790M), readout IC50, item CCS(=O)(=O)c1ccc2c(c1)N1C[C@H](C)CCCOc3c(cnn3C)-c3cc(cc(C)n3)C(=O)/N=C/1N2 [WX-002 (formate)]
0.468 nM

* * *

Experiment: Pharmacokinetic assay of compounds in mice
Format: in vivo, male ICR mice
Details: male, ICR, mouse, plasma, PO 10 mg/kg, read-out: Time to peak Tmax
ATTRIBUTE_MEASURED: Tmax (h)
Express the result in h but write the number alone.

For the compound Cc1cc2cc(n1)-c1cnn(C)c1OCCC[C@@H](C)CN1/C(=N/C2=O)Nc2ccc(N=S3(=O)CCCC3)cc21 [WX-010 (trifluoroacetate)] , what Tmax is on record?
1

Given the compound Cc1cc2cc(n1)-c1cnn(C)c1OC[C@H]1CC[C@H](C1)CN1/C(=N/C2=O)Nc2ccc(N=S(C)(C)=O)cc21 (single isomer, unassigned) [WX-027A] , what is its reported Tmax?
0.8

For the compound shown here, Cc1cc2cc(n1)-c1cnn(C)c1OCCC[C@@H](C)CN1/C(=N/C2=O)Nc2ccc(N=S(C)(C)=O)c(Cl)c21 , give the reported Tmax.
1

Which Tmax value is on record for Cc1cc2cc(n1)-c1cnn(C)c1OCCC[C@@H](C)CN1/C(=N/C2=O)Nc2ccc(N=S(C)(C)=O)cc21 ?
1.5

Report Tmax for Cc1cc2cc(n1)-c1cnn(C)c1OCCC[C@@H](C)CN1/C(=N/C2=O)Nc2ccc(N=S3(=O)CCOCC3)cc21 please.
1

* * *

Biological target: Ba/F3-FL-EGFR (L858R) (Homo sapiens, UniProt P00533, L858R, cells depend on it)
Test: Cell proliferation inhibition, CellTiter-Glo
Format: cell-based
Details: 72 hours, read-out: Cell half-maximal inhibition concentration IC50 Ba/F3-FL-EGFR (L858R)
Please respond with reported GI50 for every item in the list.
Report the figure in nM without appending any unit label.

Which GI50 value belongs to Cc1cc2cc(n1)-c1cnn(C)c1OCCC[C@@H](C)CN1/C(=N/C2=O)Nc2ccc(N=S3(=O)CCCC3)cc21 [WX-010 (trifluoroacetate)] ?
14

Fill blank: measured GI50 of the compound Cc1cc2cc(n1)-c1cnn(C)c1OCCC[C@@H](C)CN1/C(=N/C2=O)Nc2ccc(N=S(C)(C)=O)c(Cl)c21 is ____.
42.2

So what's the measured GI50 for this one? Cc1cc2cc(n1)-c1cnn(C)c1OC[C@H]1CC[C@H](C1)CN1/C(=N/C2=O)Nc2ccc(N=S(C)(C)=O)cc21 (single isomer, unassigned) [WX-027A]
39.6

Param item = Cc1cc2cc(n1)-c1cnn(C)c1OCCC[C@@H](C)CN1/C(=N/C2=O)Nc2ccc(N=S3(=O)CCNCC3)cc21 ; retrieve measured GI50.
53.9

Entry Cc1cc2cc(n1)-c1cnn(C)c1OCCC[C@@H](C)CN1/C(=N/C2=O)Nc2ccc(N=S(C)(C)=O)cc21 has what GI50?
18.6
